These measurements were taken from paper PMC9740939.

Assay: Pharmacokinetic study in rats after oral administration of PM extract (HPLC-QQQ-MS of plasma)
Format: in vivo, Sprague–Dawley (SD) rats
Details: male, Sprague-Dawley; rat plasma, oral PM 18 g/kg, n = 6
Readout: Cmax
Show the value, then the unit it is measured in.

Take a look at these entries with their results.
| Compound | Cmax |
| --- | --- |
| OCC1OC(Oc2c(O)cc(O)cc2C=Cc2ccc(O)cc2)C(O)C(O)C1O (stereo not shown) | 0.728 µg/mL |
| O=C1c2cccc(O)c2C(=O)c2c(O)cc(CO)cc21 | 0.0179 µg/mL |
| Cc1cc(O)c2c(c1)C(=O)c1cc(O)cc(O)c1C2=O | 0.388 µg/mL |

Lookup: Reported Cmax, compound COc1cc(O)c2c(c1)C(=O)c1cc(C)cc(OC3OC(CO)C(O)C(O)C3O)c1C2=O [PG, physcion-8-O-β-D-glucoside] : ____
Found: 0.02 µg/mL
